Reported IC50 for target or system UniProt Q96GD4, by entry.
Sequence (Q96GD4 whole entry): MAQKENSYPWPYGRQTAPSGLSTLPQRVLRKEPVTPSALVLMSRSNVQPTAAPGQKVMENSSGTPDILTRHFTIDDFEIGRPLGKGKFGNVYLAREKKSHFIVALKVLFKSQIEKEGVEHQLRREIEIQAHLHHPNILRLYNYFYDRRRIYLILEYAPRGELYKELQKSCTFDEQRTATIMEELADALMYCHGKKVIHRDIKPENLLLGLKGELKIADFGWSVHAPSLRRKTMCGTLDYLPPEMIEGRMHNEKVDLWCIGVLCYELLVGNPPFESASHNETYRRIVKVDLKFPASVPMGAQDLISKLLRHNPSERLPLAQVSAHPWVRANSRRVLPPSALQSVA

# annotated cases, reported IC50 shown
- Cc1cn2c(-c3cnn(Cc4nc(-c5ccccc5)c[nH]4)c3)cnc2c(Nc2cc(CN3CCCCC3)ns2)n1: 0.021 µM
- Cc1cn2c(-c3cn[nH]c3)cnc2c(Nc2cc(CN3CCCCC3)ns2)n1: ≤ 0.013 µM
- Cc1cn2c(-c3cnn(CC(=O)NCc4cccs4)c3)cnc2c(Nc2cc(CN3CCCC(C)C3)ns2)n1 (stereo not drawn): ≤ 0.013 µM
- Cc1cn2c(-c3cnn(CC(=O)Nc4ccncc4F)c3)cnc2c(Nc2cc(CN3CCCC(C)C3)ns2)n1 (stereo not drawn): ≤ 0.013 µM
- Cc1cn2c(-c3cnn(CC(=O)NCc4ccco4)c3)cnc2c(Nc2cc(CN3CCCC(C)C3)ns2)n1 (stereo not drawn): 0.07 µM
- Cc1cn2c(-c3cnn(CC(=O)NCc4cccc(F)c4)c3)cnc2c(Nc2cc(CN3CCCCC3)ns2)n1: ≤ 0.013 µM

Please provide the recorded IC50 for Cc1cn2c(-c3cnn(CC(=O)NCc4cccnc4)c3)cnc2c(Nc2cc(CN3CCCC(C)C3)ns2)n1 (stereo not drawn) , tested on UniProt Q96GD4.
0.439 µM

Please provide the recorded IC50 for `Cc1cn2c(-c3cnn(CC(=O)Nc4cccc(F)c4)c3)cnc2c(Nc2cc(CN3CCCCC3)ns2)n1` , tested on UniProt Q96GD4.
≤ 0.013 µM
